Origin of values: ChEMBL document CHEMBL2311263

- Tested System: Mitogen-activated protein kinase 14 (Homo sapiens, UniProt Q16539)
- Sequence (Q16539 whole entry): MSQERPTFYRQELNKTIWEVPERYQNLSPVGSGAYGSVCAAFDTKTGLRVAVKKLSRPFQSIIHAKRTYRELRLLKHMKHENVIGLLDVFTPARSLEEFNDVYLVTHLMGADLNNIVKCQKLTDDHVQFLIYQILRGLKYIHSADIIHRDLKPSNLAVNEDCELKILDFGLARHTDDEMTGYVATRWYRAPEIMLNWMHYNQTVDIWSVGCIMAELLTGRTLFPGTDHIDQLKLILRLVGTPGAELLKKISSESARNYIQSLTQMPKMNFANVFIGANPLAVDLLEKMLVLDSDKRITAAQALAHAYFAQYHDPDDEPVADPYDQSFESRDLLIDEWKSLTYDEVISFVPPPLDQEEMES
- Assay Details: Inhibition of p38alpha MAP kinase (unknown origin) by ELISA
pIC50: −log10 of the molar value.
Observed Property: pIC50

(1) CSCCNC(=O)c1ccc2c(c1)C(=O)c1ccc(Nc3ccc(F)cc3F)cc1CC2
(2) CNC(=O)CC[C@H](NC(=O)c1ccc2c(c1)C(=O)c1ccc(Nc3ccc(F)cc3F)cc1CC2)C(=O)NC
(3) CC1(C)OC[C@@H](COc2ccc3c(c2)C(=O)c2ccc(Nc4ccc(F)c(NC(=O)c5ccccc5)c4)cc2CC3)O1
(4) O=C(Nc1cc(Nc2ccc3c(c2)CCc2ccc(OCCN4CCOCC4)cc2C3=O)ccc1F)c1cccs1
(5) O=C(NCCO)c1ccc2c(c1)C(=O)c1ccc(Nc3ccc(F)cc3F)cc1CC2
Challenge: Rank the listed molecules by pIC50, largest first. Please respond by ranking the labels in the order requested.
Response given: 4, 1, 5, 2, 3
(4: 9.15, 1: 8.70, 5: 8.30, 2: 7.85, 3: 7.57)

* * *

- Tested System: Mitogen-activated protein kinase 14 (Homo sapiens, UniProt Q16539)
- Assay Details: Inhibition of p38alpha MAP kinase (unknown origin) by ELISA
Observed Property: IC50 (nM)

Below: 5 compounds and their reported IC50.
| Smiles String | Observed Property | Endpoint Result |
| --- | --- | --- |
| O=C(NCCCl)c1ccc2c(c1)C(=O)c1ccc(Nc3ccc(F)cc3F)cc1CC2 | IC50 | 3 |
| COC(=O)[C@H](CC(C)C)NC(=O)c1ccc2c(c1)C(=O)c1ccc(Nc3ccc(F)cc3F)cc1CC2 | IC50 | 7 |
| O=C(Nc1cc(Nc2ccc3c(c2)CCc2ccc(OCCN4CCOCC4)cc2C3=O)c(F)cc1F)c1ccccc1 | IC50 | 1 |
| O=C(NCCN1CCOCC1)c1ccc2c(c1)C(=O)c1ccc(Nc3ccc(F)cc3F)cc1CC2 | IC50 | 3 |
| CC(C)C[C@H](NC(=O)c1ccc2c(c1)C(=O)c1ccc(Nc3ccc(F)cc3F)cc1CC2)C(=O)O | IC50 | 94 |

(1) O=C(Nc1cc(Nc2ccc3c(c2)CCc2ccc(OCCN4CCOCC4)cc2C3=O)ccc1F)c1ccsc1
(2) O=C(O)c1ccc2c(c1)C(=O)c1ccc(Nc3ccc(F)cc3F)cc1CC2
Challenge: Endpoint returns the identifier whose IC50 is numerically larger, either 1 or 2 . API: response body contains the label of the selected item.
Response given: 2
(2: 11 nM, 1: 0.3 nM)

(P) COCCNC(=O)c1ccc2c(c1)C(=O)c1ccc(Nc3ccc(F)cc3F)cc1CC2
(Q) O=C(Nc1cc(Nc2ccc3c(c2)CCc2ccc(OCCO)cc2C3=O)ccc1F)c1ccccc1
Challenge: Endpoint returns the identifier whose IC50 is numerically larger, either P or Q . API: response body contains the label of the selected item.
Response given: P

(I) NC(=O)c1ccc2c(c1)C(=O)c1ccc(Nc3ccc(F)cc3F)cc1CC2
(II) COC(=O)c1ccc2c(c1)C(=O)c1ccc(Nc3ccc(F)cc3F)cc1CC2
Challenge: // returns I or II , whichever has the lower IC50 API: response body contains the label of the selected item.
Response given: II

* * *

- Tested System: Mitogen-activated protein kinase 14 (Homo sapiens)
- Assay Details: Inhibition of p38alpha MAP kinase (unknown origin) by ELISA
Observed Property: IC50 (nM)

| Compound | Tested System | Endpoint Result |
| --- | --- | --- |
| O=C(NC(CO)CO)c1ccc2c(c1)C(=O)c1ccc(Nc3ccc(F)cc3F)cc1CC2 | Mitogen-activated protein kinase 14 (Homo sapiens) | 9 |
| CC(=O)Oc1ccc2c(c1)C(=O)c1ccc(Nc3ccc(F)cc3F)cc1CC2 | Mitogen-activated protein kinase 14 (Homo sapiens) | 29 |
| CNC(=O)c1ccc2c(c1)C(=O)c1ccc(Nc3ccc(F)cc3F)cc1CC2 | Mitogen-activated protein kinase 14 (Homo sapiens) | 3 |
| O=C(OCCO)c1ccc2c(c1)C(=O)c1ccc(Nc3ccc(F)cc3F)cc1CC2 | Mitogen-activated protein kinase 14 (Homo sapiens) | 2 |
| O=C1c2ccc(Nc3cc(NC(=O)C4CCOC4)c(F)cc3F)cc2CCc2ccc(OCCN3CCOCC3)cc21 (centres undefined) | Mitogen-activated protein kinase 14 (Homo sapiens) | 12 |

(P) O=C(OCCN1CCOCC1)c1ccc2c(c1)C(=O)c1ccc(Nc3ccc(F)cc3F)cc1CC2
(Q) CCOC(=O)CNC(=O)c1ccc2c(c1)C(=O)c1ccc(Nc3ccc(F)cc3F)cc1CC2
Challenge: // returns P or Q , whichever has the lower IC50 API: response body contains the label of the selected item.
Response given: P
(P: 1 nM, Q: 6 nM)

(1) O=C(Nc1cc(Nc2ccc3c(c2)CCc2ccccc2C3=O)c(F)cc1F)c1ccccc1
(2) COc1ccc2c(c1)C(=O)c1ccc(Nc3ccc(F)c(NC(=O)c4ccccc4)c3)cc1CC2
Challenge: // returns 1 or 2 , whichever has the lower IC50 API: response body contains the label of the selected item.
Response given: 1
(1: 4 nM, 2: 21 nM)
